The following compounds are shown together with reported Herbicidal action against [%] ABUTH values.
# Test system: ABUTH
# test: Post-emergence herbicidal action against ABUTH
# Format: in vivo, Abutilon theophrasti
# study-conditions: application rate 80 g/ha, rated visually about 3 weeks after treatment
Report as a plain number; the unit % is understood.

CC1(C(=O)N[C@H]2C=C[C@@H](C(=O)OCCCl)C2)CC(c2cc(F)cc(F)c2)=NO1 (some centres unmarked) [Example I-009]
90

Just so you know, measured Herbicidal action against [%] ABUTH for COC(=O)[C@@H]1C=C[C@H](NC(=O)C2(OC)CC(c3cc(F)cc(F)c3)=NO2)C1 (some centres unmarked) [Example I-019] came out at 80

Herbicidal action against [%] ABUTH measured on CCOC(=O)C1C=CC(NC(=O)C2(C)CC(c3cc(F)cc(C#N)c3)=NO2)C1 (mixture of isomers) [Example I-073] = 80
